Here the recorded melting point is given for each entry.

Please fill in: melting point reported for O=C(O)c1c(OCc2ccccc2)ccc2ccccc12 = 127 to 128 °C

* * *

Here the recorded melting point is given for each entry.

{"columns": ["molecule", "assay.value"],
 "data": [
  ["Cn1cc(C(=O)NCc2ccc(Cl)cc2)c(=O)c2cc(CN3CC[C@@H](O)C3)oc21", "189 to 190 °C"]
]}

Please fill in: melting point reported for COc1ccc2c(c1)c(CC(=O)O)c(C)n2Cc1ccccc1OC = 176 to 180 °C

Please fill in: melting point reported for CC(=O)Nc1ccc(OC(C)(C)C(=O)c2ccccc2)cc1 = 141 to 142 °C

Please fill in: melting point reported for O=C(c1ccc(F)cc1)C1CCN(CCn2c(=O)[nH]c3ccsc3c2=O)CC1 = 141 to 143 °C

* * *

Here the recorded melting point is given for each entry.

The examples below pair each entry with its known result.
{"columns": ["compound", "melting point"],
 "data": [
  ["CCCCCCCCCCCCCCCCCCOc1cccc(CC(=O)OC)c1", "43 to 45 °C"],
  ["NS(=O)(=O)c1ccc(-c2cn(-c3nc(-c4ccc(F)c(F)c4)cc(C(F)(F)F)n3)cn2)s1", "228 °C"],
  ["CCN1c2ncc(CCc3cnc4ccccc4c3)cc2C(=O)N(C)c2ccc(F)nc21", "154 to 156 °C"]
]}

Please fill in: melting point reported for COc1ccc(-c2nc(-c3ccc4c(c3)OCO4)c(-c3ccc4c(c3)OCO4)[nH]2)c(OC)c1 = 95 °C

Please fill in: melting point reported for O=C(O)COCCc1ccc(Cl)cc1 = 75 to 77 °C

* * *

measurement.kind: melting point (°C)

{"columns": ["compound", "assay.value"],
 "data": [
  ["COc1cc(NC(C)=O)c(Cl)cc1NC(=O)N1CCN(Cc2ccccc2)CC1", 174],
  ["O=C1NC(=O)C(Nc2ccc(CCNC[C@H](O)COc3ccc(O)cc3)cc2)S1 (some centres undefined)", 165]
]}

A = Cc1ccnc(-c2ccc(C(F)(F)F)cc2)n1
B = COc1ccc(Cl)c(Oc2c(Cl)nc(C)nc2NS(=O)(=O)c2ccc(C(C)(C)C)cc2)c1
## Task Please indicate which has the smaller reported melting point: A , or B . Respond with the label that goes with your answer.
## Result A
(A: 50 °C, B: 182 °C)

* * *

Here the recorded melting point is given for each entry.

The examples below pair each entry with its known result.
{"columns": ["molecule", "melting point"],
 "data": [
  ["CC(=O)COc1ccc(O)cc1", "110 to 112 °C"],
  ["C=C(C)C(=O)Nc1ccc(O)c(-n2nc3ccc(Cl)cc3n2)c1", "204 to 205 °C"],
  ["CCOCc1cc2cc(Cl)ccc2oc1=Nc1ccc(Cl)cc1", "126 to 128 °C"],
  ["CC(=NC#N)NC1=CC(C)(C)Oc2ccc(C#N)cc21", "205 to 206 °C"],
  ["Nc1ncc(-c2ccc(F)c(Cl)c2)nc1C(=O)Nc1cccnc1", "236 to 238 °C"],
  ["CC(C)(C)[Si](C)(C)Oc1cccc(C(O)C(c2ccccc2)C2SCCCS2)c1 (stereo not given)", "75 to 76 °C"]
]}

Please fill in: melting point reported for COc1ccc2[nH]c(C(F)(F)F)c(C#N)c2c1 = 189 to 190 °C

Please fill in: melting point reported for O=C(C[C@@H](CCCC1CCCCC1)c1nc(Cn2cncn2)no1)NO = 118 to 120 °C

Please fill in: melting point reported for CN1C(=O)CC[C@]2(C)c3ccc(-c4cccc(NC(c5ccccc5)c5ccccc5)c4)cc3CC[C@@H]12 = 109 to 111 °C

Please fill in: melting point reported for Cc1cccc(C(=O)NC(C)(C(N)=S)C(C)C)c1 (stereo not given) = 108 to 110 °C
